# method: qHTS of pediatric cancer cell lines to identify multiple opportunities for drug repurposing: Primary screen for TC32 cells (AID 1347089); also: nearly all actives have a fitted effect of over 60% in size
# experimental setup: TC32 Ewing sarcoma viability, CellTiter-Glo luminescence, 48 h; series mostly up to 45.8 µM
# Method: Drug repurposing or repositioning has been offered as a strategy for drug development in oncology programs. […] [1] Shen, M et al. Quantitative high-throughput phenotypic screening of pediatric cancer cell lines identifies multiple opportunities for drug repurposing. […] Cells were assayed in growth media at a density of 500-1,000 cells/well. […] After a 15min incubation at room temperature, samples were analyzed for luminescence intensity using a ViewLux High-throughput CCD imager equipped with clear filters.
Inconclusive results are not listed. The source made the active and inactive calls. Calls follow the shape of the dose curve; as a rule, active = well fitted cell-killing curve with a large enough effect; inconclusive = small, poorly fitted or top-dose-only effect; inactive = flat fitted curve, though single readings scatter.
Outcomes: T = active, F = inactive

compound: O=C1c2cccc(O)c2C(=O)c2c(O)cc(CO)cc21
qualitative label: F
--
compound: CCCNS(=O)(=O)Nc1ncnc(OCCOc2ncc(Br)cn2)c1-c1ccc(Br)cc1
qualitative label: F
--
compound: Nc1nc2c(c(=O)[nH]1)N(C=O)[C@H](CNc1ccc(C(=O)N[C@@H](CCC(=O)O)C(=O)O)cc1)CN2
qualitative label: F
--
compound: CCCCCN=C(N)NN=Cc1c[nH]c2ccc(OC)cc12
qualitative label: T
--
compound: CCc1c(O)cc(O)c(C(=O)c2ccc(OCCN3CCOCC3)c(OC)c2)c1CC(=O)N(CCOC)CCOC
qualitative label: T
--
compound: O=C1c2c(O)cccc2[C@@H]([C@@H]2O[C@H](CO)[C@@H](O)[C@H](O)[C@H]2O)c2cc(CO)cc(O)c21
qualitative label: F
--
compound: CC(=O)NC(CS)C(=O)O (centres undefined)
qualitative label: F
--
compound: Nc1nc(=O)n([C@H]2C[C@H](O)[C@@H](CO)O2)cc1F
qualitative label: T
--
compound: CCCCCCCN(CC)CCCC(O)c1ccc(NS(C)(=O)=O)cc1 (centres undefined)
qualitative label: F
--
compound: O=C(C=CC=Cc1ccc2c(c1)OCO2)N1CCCCC1
qualitative label: F
--
compound: C[C@H](NC(=O)[C@@H](O)c1cc(F)cc(F)c1)C(=O)N[C@@H]1C(=O)N(C)c2ccccc2-c2ccccc21
qualitative label: F
--
compound: OCc1ccccc1O[C@@H]1O[C@H](CO)[C@H](O)[C@H](O)[C@H]1O
qualitative label: F
--
compound: C[C@@]12C[C@@]3(O)O[C@@H](O1)[C@]1(COC(=O)c4ccccc4)[C@@H]3C[C@@]12O[C@@H]1O[C@H](CO)[C@@H](O)[C@H](O)[C@@H]1O
qualitative label: F
--
compound: COc1cccc2c1C(=O)c1c(O)c3c(c(O)c1C2=O)C[C@@](O)(C(=O)CO)C[C@H]3O[C@H]1C[C@H](N)[C@H](O)[C@H](C)O1
qualitative label: T
--
compound: CC(=O)O[C@H]1C[C@@H]2CC[C@H]3[C@H]4C[C@H]([N+]5(C)CCCCC5)[C@@H](OC(C)=O)[C@@]4(C)CC[C@@H]3[C@@]2(C)C[C@H]1[N+]1(C)CCCCC1
qualitative label: F
--
compound: C=CC(=O)Nc1ccc2ncnc(Nc3ccc(OCc4cccc(F)c4)c(Cl)c3)c2c1
qualitative label: T
--
compound: NC(=NCCCCCCN=C(N)N=C(N)Nc1ccc(Cl)cc1)N=C(N)Nc1ccc(Cl)cc1
qualitative label: F
--
compound: N#CC(=C(N)Sc1ccc(N)cc1)c1ccccc1C(F)(F)F
qualitative label: F
--
compound: FC(F)(F)c1ccc(Nc2nc3ccc(Oc4ccnc(-c5ncc(C(F)(F)F)[nH]5)c4)cc3[nH]2)cc1
qualitative label: F

---

# method: qHTS of pediatric cancer cell lines to identify multiple opportunities for drug repurposing: Primary screen for LAN-5 cells (AID 1347100)
# experimental setup: LAN-5 neuroblastoma viability, CellTiter-Glo luminescence, 48 h; series mostly up to 46 µM
Results filed as inconclusive are left out. The source made the active and inactive calls. Calls come from the whole dose curve; as a rule, active = well fitted cell-killing curve with a large enough effect; inconclusive = small, poorly fitted or top-dose-only effect; inactive = no such curve, though single readings can be large or run the other way.
Outcomes: active, inactive

molecule: O=C(Nc1cccc(Nc2ncc(Br)c(NCCc3cnc[nH]3)n2)c1)N1CCCC1
qualitative label: active
//
molecule: O=C(O)C=Cc1ccc(Cn2ccnc2)cc1
qualitative label: inactive
//
molecule: CN[C@@H]1C[C@H]2O[C@@](C)([C@H]1OC)n1c3ccccc3c3c4c(c5c6ccccc6n2c5c31)C(=O)N[C@H]4O
qualitative label: active
//
molecule: O=c1[nH]c(=O)n([C@H]2C[C@@H](O)[C@@H](CO)O2)cc1C=CBr
qualitative label: inactive
//
molecule: Cc1onc(-c2ccccc2)c1C(=O)N[C@@H]1C(=O)N2[C@@H](C(=O)O)C(C)(C)S[C@@H]12
qualitative label: inactive
//
molecule: C=C1CCC2[C@](C)(CO)C(O)CC[C@]2(C)C1CC=C1C(=O)OCC1O (some centres not stated)
qualitative label: inactive
//
molecule: Oc1ccc([C@@H]2Oc3ccc(O)cc3[C@@H]3CCC[C@@H]32)cc1
qualitative label: active
//
molecule: CC(=O)O[C@H]1C[C@@H]2CC[C@H]3[C@H]4C[C@H]([N+]5(C)CCCCC5)[C@@H](OC(C)=O)[C@@]4(C)CC[C@@H]3[C@@]2(C)C[C@H]1N1CCCCC1
qualitative label: inactive
//
molecule: CC(=O)[C@]1(O)Cc2c(O)c3c(c(O)c2[C@@H](O[C@H]2C[C@H](N)[C@@H](O)[C@H](C)O2)C1)C(=O)c1ccccc1C3=O
qualitative label: active
//
molecule: Cc1cncc2cccc(S(=O)(=O)N3CCCN(C(=O)CN)C[C@@H]3C)c12
qualitative label: active
//
molecule: COc1ccc(CCC(=O)c2c(O)cc(O[C@@H]3O[C@H](CO)[C@@H](O)[C@H](O)[C@@H]3O[C@@H]3O[C@@H](C)[C@H](O)[C@@H](O)[C@@H]3O)cc2O)cc1O
qualitative label: inactive
//
molecule: O=C(O)c1ccc(Nc2ncc3c(n2)-c2ccc(Cl)cc2C(c2c(F)cccc2F)=NC3)cc1
qualitative label: active
//
molecule: Cc1cc(Nc2ncc3c(n2)N(C)C(=O)N(c2cc(NC(=O)c4cccc(C(F)(F)F)c4)ccc2C)C3)n(C)n1
qualitative label: active
//
molecule: C=CCNc1c(O)cc2c(O)c1C[C@@H](C)C[C@H](OC)[C@@H](O)[C@@H](C)C=C(C)[C@H](OC(N)=O)[C@@H](OC)C=CC=C(C)C(=O)N2
qualitative label: active
//
molecule: C[C@@H](Oc1ccc2[nH]nc(C=Cc3cnn(CCO)c3)c2c1)c1c(Cl)cncc1Cl
qualitative label: active
//
molecule: CN(C)CC(=O)N1CCC(c2ccc(NC(=O)c3ncc(C#N)[nH]3)c(C3=CCCCC3)c2)CC1
qualitative label: active
//
molecule: CON=C(C(=O)N[C@@H]1C(=O)N2C(C(=O)O)=C(CSC(=O)c3ccco3)CS[C@H]12)c1csc(N)n1
qualitative label: inactive

---

# method: qHTS of pediatric cancer cell lines to identify multiple opportunities for drug repurposing: Primary screen for SK-N-SH cells (AID 1347098); also: nearly all actives have a fitted effect of over 65% in size
# experimental setup: SK-N-SH viability, CellTiter-Glo luminescence, 48 h; series mostly up to 57 µM
Inconclusive results are not listed. Activity calls are given as the source filed them. Calls follow the shape of the dose curve; as a rule, active = well fitted cell-killing curve with a large enough effect; inconclusive = small, poorly fitted or top-dose-only effect; inactive = no such curve, though single readings can be large or run the other way.
Outcomes: true (1) for active, false (0) for inactive

compound: CCOC(=O)N1CCN([N+]([O-])=NOc2ccc([N+](=O)[O-])cc2C#N)CC1
qualitative label: false (0)
--
compound: Cc1ccc2nc(NCCN)c3ncc(C)n3c2c1
qualitative label: true (1)
--
compound: C[C@H]1COc2c(N3CCN(C)CC3)c(F)cc3c(=O)c(C(=O)O)cn1c23
qualitative label: false (0)
--
compound: C[C@@H](Oc1ccc2[nH]nc(C=Cc3cnn(CCO)c3)c2c1)c1c(Cl)cncc1Cl
qualitative label: true (1)
--
compound: CC(C)[C@H](CO)Nc1nc(Nc2cccc(Cl)c2)c2ncn(C(C)C)c2n1
qualitative label: true (1)
--
compound: CC[C@H]1OC(=O)[C@H](C)[C@@H](O[C@H]2C[C@@](C)(OC)[C@@H](O)[C@H](C)O2)[C@H](C)[C@@H](O[C@@H]2O[C@@H](C)C[C@H](N(C)C)[C@@H]2O)[C@](C)(O)C[C@@H](C)C(=O)[C@H](C)[C@@H](O)[C@]1(C)O
qualitative label: false (0)
--
compound: Cn1c(Nc2ccc(C(F)(F)F)cc2)nc2cc(Oc3ccnc(-c4ncc(C(F)(F)F)[nH]4)c3)ccc21
qualitative label: true (1)
--
compound: C=CC(=O)Nc1cccc(Nc2nc(NC3CCC(N(C)C)CC3)nc3c2ncn3C(C)C)c1 (stereo not drawn)
qualitative label: true (1)

---

# method: qHTS of pediatric cancer cell lines to identify multiple opportunities for drug repurposing: Primary screen for Saos-2 cells (AID 1347097); also: potency is read from the fitted curve at half-maximal effect; nearly all actives have a fitted effect of over 40% in size
# experimental setup: Saos-2 viability, CellTiter-Glo ATP luminescence, 48 h; series mostly up to 46 µM
Results filed as inconclusive are left out. Calls of active or inactive are those of the source. The call rests on the fitted dose curve; in most records, active means well fitted cell-killing curve with a large enough effect; inconclusive means small, poorly fitted or top-dose-only effect; inactive means no such curve, though single readings can be large or run the other way.
experimental endpoint: Potency

smiles code: O=C(C=CC#Cc1cccc(NS(=O)(=O)c2ccccc2)c1)NO
experimental endpoint: Potency
endpoint result: 2.35 µM (active)
--
smiles code: COC[C@H](NC(=O)c1cnc(C)s1)C(=O)N[C@@H](COC)C(=O)N[C@@H](Cc1ccccc1)C(=O)[C@@]1(C)CO1
experimental endpoint: Potency
endpoint result: 0.662 µM (active)
--
smiles code: C#Cc1cccc(Nc2ncnc3cc(OCCOC)c(OCCO)cc23)c1
experimental endpoint: Potency
endpoint result: 5.9 µM (active)
--
smiles code: O=C1NC(=O)[C@@H](c2cn3c4c(cccc24)CCC3)[C@H]1c1c[nH]c2ccccc12
experimental endpoint: Potency
endpoint result: 0.148 µM (active)
--
smiles code: CCOC(=O)[C@@H](N)Cc1ccc(-c2cc(O[C@H](c3ccc(Cl)cc3-n3ccc(C)n3)C(F)(F)F)nc(N)n2)cc1
experimental endpoint: Potency
endpoint result: 18.7 µM (active)
